- Tgt: T1, Nat1 (LTIITLE) (also: TFA salt)
- T1 peptide: LTIITLE
- Method Summary: cell-based or functional assay
Non-standard residues stand in square brackets, D forms with d. No end group written: not given here. hArg = N=C(N)NCCCC[C@H](N)C(=O)O; NMeK = CN[C@@H](CCCCN)C(=O)O
Checkbox rule: IC50, Thiofiavin T aggregation assay lower than 100 nM = yes; IC50, Thiofiavin T aggregation assay not lower than 100 nM = no.

>>> assigned_label("I[hArg]I[hArg]RYR [Ile-homoArg-Ile-homoArg-Arg-Tyr-Arg]")
"yes"
>>> assigned_label("FRIRRYR")
"no"
>>> assigned_label("LTIRLTH")
"no"
>>> assigned_label("[dH][dW][dR][dW][dY][dW][dK] [hwrwywk]")
"no"
>>> assigned_label("YYIRYYK")
"no"
>>> assigned_label("IRIRRYR")
"yes"
>>> assigned_label("IRIRHYR")
"yes"
>>> assigned_label("[dF][dW][dR][dW][dH][dR] [fwrwhr]")
"yes"
>>> assigned_label("IRIRAYR")
"yes"
>>> assigned_label("[dQ][dF][dH][dY][dK][dR][dR] [qfhylcrr]")
"no"
>>> assigned_label("LLAKYHR")
"no"
>>> assigned_label("RLYIRLS")
"no"
>>> assigned_label("[dR][dF][dY][dR][dH][dH][dR] [rfyrhhr]")
"no"
>>> assigned_label("RFYRYLR")
"no"
>>> assigned_label("[dQ][dI][dR][dY][dF][dR][dR] [qiryfrr]")
"no"
>>> assigned_label("[dS][dH][dW][dR][dH][dH][dR] [shwrhhr]")
"no"
>>> assigned_label("LTIQLWH")
"no"
>>> assigned_label("[dK][dY][dR][dW][dY][dR][dH] [kyrwyrh]")
"yes"
>>> assigned_label("[dL][dW][dR][dW][dY][dR][dR] [lwrwyrr]")
"no"
>>> assigned_label("[dW][dW][dR][dR][dH][dH][dR] [wwrrhhr]")
"no"
>>> assigned_label("LRI[NMeK]YHR [LRI(N-Me)KYHR]")
"no"
>>> assigned_label("IRI[hArg]RYR [Ile-Arg-Ile-homoArg-Arg-Tyr-Arg]")
"yes"
>>> assigned_label("IRIRRYE")
"no"
>>> assigned_label("[dR][dW][dM][dY][dW][dQ][dR] [rwmywqr]")
"no"
>>> assigned_label("TYIRYLR")
"no"
>>> assigned_label("LAIKYHR")
"no"
>>> assigned_label("[dY][dQ][dW][dY][dR][dW][dQ] [yqwyrwq]")
"no"
>>> assigned_label("[dH][dW][dR][dW][dL][dR][dR] [hwrwlrr]")
"yes"
>>> assigned_label("WTRILWH")
"no"
